These data points were gathered from the RNAGym collection of RNA variant scans (doi:10.1073/pnas.2313332121).

Catalogue of variants with associated polymerase ribozyme fitness (log ratio)
B1: TPR 5TU (parent)
chain: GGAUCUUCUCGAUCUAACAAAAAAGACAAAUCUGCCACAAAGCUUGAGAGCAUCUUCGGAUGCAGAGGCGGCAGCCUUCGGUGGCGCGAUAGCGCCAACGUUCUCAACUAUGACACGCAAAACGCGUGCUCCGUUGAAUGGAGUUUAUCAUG

variants of: B1; assay: polymerase ribozyme fitness, log enrichment relative to wild type (log ratio); higher = more active; in vitro selection for triplet polymerase activity
Variants at the floor of the assay were thinned out.
reportedMetric: polymerase ribozyme fitness (log ratio)

mutantId: U61C G67A G68C C79U A98G
recordedMeasurement: ≤ -4.2
--
mutantId: C85G A115U A121G A142G U144G
recordedMeasurement: ≤ -4.2
--
mutantId: C51G U53G C75A C103A
recordedMeasurement: ≤ -4.2
--
mutantId: U55A U148C
recordedMeasurement: -1.05
--
mutantId: A19U A30U U55G G59A G86U A150U
recordedMeasurement: ≤ -4.2
--
mutantId: C32G G58C G94U
recordedMeasurement: -3.86
--
mutantId: C10A A29C U44G G58A A60G A97U G141C
recordedMeasurement: ≤ -4.2
--
mutantId: A19U A39G C85U U134G
recordedMeasurement: ≤ -4.2
--
mutantId: U7A C27A U31G A66U U146G A150U
recordedMeasurement: ≤ -4.2
--
mutantId: G34C C51G C57U G83C
recordedMeasurement: ≤ -4.2
--
mutantId: C8A G83U U90G C118A
recordedMeasurement: ≤ -4.2
--
mutantId: C57U C96U C103U G117U G136A G141U
recordedMeasurement: ≤ -4.2
--
mutantId: A41U G80A
recordedMeasurement: -0.78
--
mutantId: C10A A12G U53A U55A G92C G94C C105U
recordedMeasurement: ≤ -4.2
--
mutantId: U44C C54U
recordedMeasurement: -3.56
--
mutantId: C51A A52C C75A G83U G88C A91G C123G G126U A147U U151G
recordedMeasurement: ≤ -4.2
--
mutantId: C54U G84U
recordedMeasurement: -2.22
--
mutantId: G83A A115U
recordedMeasurement: -1.25
--
mutantId: G48A C69G G84U
recordedMeasurement: -2.41
--
mutantId: A21U U82C
recordedMeasurement: 0.17
--
mutantId: C5G C8U A12U C27G G59C A66G U78C U101A C125G C131A U139C
recordedMeasurement: -3.97
--
mutantId: A60C U82A G84U U102G G126U
recordedMeasurement: ≤ -4.2
--
mutantId: C87A G126A
recordedMeasurement: -4.04
--
mutantId: U6G C35G C95A C99U U102A U111C
recordedMeasurement: ≤ -4.2
--
mutantId: C18U A20G C76A U77A G92U U101A U134G
recordedMeasurement: ≤ -4.2
--
mutantId: A21U C85A A97U
recordedMeasurement: -2.01
--
mutantId: U53A G92C U102C
recordedMeasurement: -3.58
--
mutantId: C85G C131G G152U
recordedMeasurement: ≤ -4.2
--
mutantId: A37C A52G
recordedMeasurement: -0.00493
--
mutantId: C54U U55A
recordedMeasurement: -0.284
--
mutantId: C8U U13A A40C U44G C93G
recordedMeasurement: ≤ -4.2
--
mutantId: A22U A30G C85G U104A C105A U111G
recordedMeasurement: ≤ -4.2
--
mutantId: A40U U56A C85G C114G
recordedMeasurement: -3.79
--
mutantId: C14G A24G U31A A49C A52C C54A U56A A73U A89G C99G A107C C149G
recordedMeasurement: ≤ -4.2
--
mutantId: G84A A113U G140A
recordedMeasurement: ≤ -4.2
--
mutantId: C5G U53A U56A G68C G94A C118U U148A A150C
recordedMeasurement: ≤ -4.2
--
mutantId: A19G A20U C36U C96G
recordedMeasurement: -3.67
--
mutantId: C76A C85G
recordedMeasurement: -3.53
--
mutantId: A91U C96U C103A U109C
recordedMeasurement: ≤ -4.2
--
mutantId: U4G G11C U44G
recordedMeasurement: ≤ -4.2
--
mutantId: C85G A106C G141U G143U U151A
recordedMeasurement: ≤ -4.2
--
mutantId: A52U C96U G100A A147C
recordedMeasurement: ≤ -4.2
--
mutantId: C27A U44A C85A A107C U148C
recordedMeasurement: ≤ -4.2
--
mutantId: A21G C27G U33C G62U G81U C96U C105A A113U A122U
recordedMeasurement: ≤ -4.2
--
mutantId: A73U G84A
recordedMeasurement: -2.32
--
mutantId: A30U A52C U82A U101A G128A G136U G141C
recordedMeasurement: ≤ -4.2
